// data source = paper PMC4238785

- Assay type: in vivo, human
- Conditions: both, human, plasma, oral
Quantity kind: Vd/F (L)

Smiles str: CCOc1cc([C@@H](CS(C)(=O)=O)N2C(=O)c3cccc(NC(C)=O)c3C2=O)ccc1OC
Readout value: 115

###

- Type: in vivo, human
- Conditions: both, human, plasma, po, 30 mg

Compound: CCOc1cc([C@@H](CS(C)(=O)=O)N2C(=O)c3cccc(NC(C)=O)c3C2=O)ccc1OC [apremilast]
half-life [h]: 8.2

###

- Assay type: in vivo, human
- Conditions: both, human, plasma, oral
Quantity kind: Tmax (h)

Compound: CCOc1cc([C@@H](CS(C)(=O)=O)N2C(=O)c3cccc(NC(C)=O)c3C2=O)ccc1OC [apremilast]
Quantity kind: Tmax
Scale unit: h
Readout value: 1.25
